- TARGET_OR_TEST_SYSTEM: NAMPT (Homo sapiens)
- Construct: His tag; host or cells: E. coli
- Sequence (P43490 whole entry): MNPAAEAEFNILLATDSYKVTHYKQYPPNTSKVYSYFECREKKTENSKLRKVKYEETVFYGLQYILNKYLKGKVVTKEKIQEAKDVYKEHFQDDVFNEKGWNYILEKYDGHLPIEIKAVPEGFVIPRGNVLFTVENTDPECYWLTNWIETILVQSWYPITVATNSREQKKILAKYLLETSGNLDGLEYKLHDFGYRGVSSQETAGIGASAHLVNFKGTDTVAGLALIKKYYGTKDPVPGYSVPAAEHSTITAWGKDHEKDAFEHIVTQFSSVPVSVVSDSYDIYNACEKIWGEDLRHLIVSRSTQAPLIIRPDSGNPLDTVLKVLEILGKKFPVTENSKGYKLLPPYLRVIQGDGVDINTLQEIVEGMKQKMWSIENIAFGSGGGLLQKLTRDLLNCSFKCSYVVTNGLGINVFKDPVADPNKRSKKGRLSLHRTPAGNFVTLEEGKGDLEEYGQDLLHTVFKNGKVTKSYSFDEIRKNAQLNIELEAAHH
- TEST: Biochemical inhibition assay: NAMPT enzymatic reaction, NMN quantified by mass spectrometry
- CONDITIONS_USED: NAMPT enzymatic assay; read-out: Biochem IC50
pIC50: −log10 of the molar value.

- COMPOUND_STRING: "Cc1ccc(S(=O)(=O)c2ccc(CNC(=O)c3cnc4nccn4c3)cc2)cn1"
  pIC50: 8.23
- COMPOUND_STRING: "CC(C)COc1cc(F)cc(S(=O)(=O)c2ccc(CNC(=O)c3ccc4nccn4c3)cc2)c1"
  pIC50: 7.95
- COMPOUND_STRING: "CC(C)Oc1ccc(S(=O)(=O)c2ccc(CNC(=O)c3cc4ccncc4o3)cc2)cc1"
  pIC50: 8.17
- COMPOUND_STRING: "O=C(NCc1ccc(S(=O)(=O)c2cc(C(F)(F)F)ccn2)cc1)c1cnc2nccn2c1"
  pIC50: 8.06
- COMPOUND_STRING: "O=C(NCc1ccc(S(=O)(=O)c2ccc(Cl)cc2C(F)(F)F)cc1)c1cc2ccncc2s1"
  pIC50: 8.15
- COMPOUND_STRING: "COc1ccc(S(=O)(=O)c2ccc(CNC(=O)c3cc4ccncc4o3)cc2)c(OC)n1"
  pIC50: 8.18
- COMPOUND_STRING: "CN(C)c1cnc(S(=O)(=O)c2ccc(CNC(=O)c3ccc4nccn4c3)cc2)cn1"
  pIC50: 7.80
- COMPOUND_STRING: "Cc1nc(C)c(S(=O)(=O)c2ccc(CNC(=O)c3ccc4nccn4c3)cc2)s1"
  pIC50: 8.05
- COMPOUND_STRING: "O=C(NCc1ccc(S(=O)(=O)c2ccc(C(F)(F)F)cn2)cc1)c1cnc2nccn2c1"
  pIC50: 8.23
- COMPOUND_STRING: "O=C(NCc1ccc(S(=O)(=O)c2cccc(N3CCCCC3)c2)cc1)c1ccc2nccn2c1"
  pIC50: 7.94
- COMPOUND_STRING: "CN1CCN(c2ccc(S(=O)(=O)c3ccc(CNC(=O)c4cc5cnccc5[nH]4)cc3)cn2)CC1"
  pIC50: 8.22
